Target: Peroxisome proliferator-activated receptor alpha (Homo sapiens, UniProt Q07869)
Sequence (Q07869 whole entry): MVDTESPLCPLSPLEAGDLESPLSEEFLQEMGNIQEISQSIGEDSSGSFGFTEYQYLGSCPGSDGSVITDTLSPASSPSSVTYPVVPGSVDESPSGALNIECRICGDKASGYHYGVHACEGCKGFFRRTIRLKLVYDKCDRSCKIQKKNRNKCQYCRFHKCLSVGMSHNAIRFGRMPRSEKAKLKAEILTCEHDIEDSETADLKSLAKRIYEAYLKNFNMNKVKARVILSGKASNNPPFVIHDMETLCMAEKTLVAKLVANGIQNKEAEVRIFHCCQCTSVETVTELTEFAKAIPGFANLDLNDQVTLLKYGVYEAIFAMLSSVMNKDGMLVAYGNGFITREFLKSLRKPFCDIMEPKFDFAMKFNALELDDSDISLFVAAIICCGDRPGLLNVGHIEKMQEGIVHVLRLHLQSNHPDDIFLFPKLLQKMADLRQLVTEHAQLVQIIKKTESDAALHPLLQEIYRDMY
Test: Binding affinity of compound to human peroxisome proliferator-activated receptor alpha was determined by competitive binding assay
Consider the following compounds and their measured EC50 readings.
Write the answer as a number in µM, unit excluded.

* CC[C@H](Cc1ccc(OC)c(C(=O)NCc2ccc(C(F)(F)F)cc2)c1)C(=O)O | 24

Query: State its EC50: CC[C@@H](Cc1ccc(OC)c(C(=O)NCc2ccc(C(F)(F)F)cc2)c1)C(=O)O
Result: 0.74
